Ref: patent US12246076B2

Assay: Ex vivo biodistribution in PC-3 tumor-bearing mice
Conditions: male, NRG, mouse, muscle, iv, total radioactivity, Biodistribution Muscle Mean, 1 h post-injection, mice bearing PC-3 tumor xenografts, n = 4
true means recorded tissue uptake at 1 h is 0.1 %ID/g or above; false means it is below 0.1 %ID/g.

Molecule	Label
CC(C)C[C@@H](CN1CSC[C@H]1C(N)=O)NC(=O)[C@H](Cc1cnc[nH]1)NC(=O)CN(C)C(=O)[C@@H](NC(=O)[C@H](C)NC(=O)[C@H](Cc1c[nH]c2ccccc12)NC(=O)[C@H](CCC(N)=O)NC(=O)[C@@H](Cc1ccccc1)NC(=O)CN1CCC(NC(=O)CN2CCN(CC(=O)O)CCN(CC(=O)O)CCN(CC(=O)O)CC2)CC1)C(C)C [^68Ga-LW01090, metal not drawn]	true

# ---- query molecule ----
Record CC(C)C[C@H](NC(=O)[C@H](Cc1c[nH]cn1)N(C)C(=O)CNC(=O)[C@@H](NC(=O)[C@H](C)NC(=O)[C@H](Cc1c[nH]c2ccccc12)NC(=O)[C@H](CCC(N)=O)NC(=O)[C@@H](Cc1ccccc1)NC(=O)CN1CCC(NC(=O)CN2CCN(CC(=O)O)CCN(CC(=O)O)CCN(CC(=O)O)CC2)CC1)C(C)C)C(=O)N1CSC[C@H]1C(N)=O [^68Ga-LW01107, metal not drawn] ; criterion: tissue uptake at 1 h no lower than 0.1 %ID/g. Met?
false

====

Experiment: in vivo
Settings: male, NRG, mouse, iv, total radioactivity, Biodistribution Lungs Mean
Numbered stars: 1 amine (or outer) side, 2 acyl side, 3 side chain; on linkers, the order of the positions; unused ones are H or OH. Square brackets hold non-standard residues; d marks the D form. Peptide text beside a SMILES is read from it. * marks the point of attachment. DOTA = O=C(O)CN1CCN(CC(=O)O)CCN(CC(=O)*)CCN(CC(=O)O)CC1; NMeH = CN[C@@H](Cc1c[nH]cn1)C(=O)O; X1 = O=C(CN1CCC(N[*:1])CC1)[*:2]; Tle = CC(C)(C)[C@H](N)C(=O)O; Thz = O=C(O)[C@@H]1CSCN1
Parameter tissue uptake at 1 h: see the listing below.
Provide a numeric answer, followed by its unit.

Compound	Observed Measurement
CC(C)C[C@H](NC(=O)[C@H](Cc1c[nH]cn1)N(C)C(=O)CNC(=O)[C@@H](NC(=O)[C@H](C)NC(=O)[C@H](Cc1c[nH]c2ccccc12)NC(=O)[C@H](CCC(N)=O)NC(=O)[C@@H](Cc1ccccc1)NC(=O)CN1CCC(NC(=O)CN2CCN(CC(=O)O)CCN(CC(=O)O)CCN(CC(=O)O)CC2)CC1)C(C)C)C(=O)N1CSC[C@H]1C(N)=O [^68Ga-LW01107, metal not drawn]	0.28 %ID/g

GET /values?readout=tissue uptake at 1 h&item= CC(C)C[C@H](NC(=O)[C@H](Cc1c[nH]cn1)NC(=O)CNC(=O)[C@@H](NC(=O)[C@H](C)NC(=O)[C@H](Cc1c[nH]c2ccccc12)NC(=O)[C@H](CCC(N)=O)NC(=O)[C@@H](Cc1ccccc1)NC(=O)CN1CCC(NC(=O)CN2CCN(CC(=O)O)CCN(CC(=O)O)CCN(CC(=O)O)CC2)CC1)C(C)(C)C)C(=O)N1CSC[C@H]1C(N)=O [^68Ga-LW01108, metal not drawn]
0.49 %ID/g

Continue with CC(C)C[C@H](NC(=O)[C@H](Cc1cnc[nH]1)N(C)C(=O)CNC(=O)[C@@H](NC(=O)[C@H](C)NC(=O)[C@H](Cc1c[nH]c2ccccc12)NC(=O)[C@H](Cc1c[nH]cn1)NC(=O)[C@@H](Cc1ccccc1)NC(=O)CN1CCC(NC(=O)CN2CCN(CC(=O)O)CCN(CC(=O)O)CCN(CC(=O)O)CC2)CC1)C(C)(C)C)C(=O)N1CSC[C@H]1C(N)=O [^68Ga-LW01142, metal not drawn] ({DOTA}-[X1][dF]HWA[Tle]G[NMeH]L[Thz]-NH2)
4.59 %ID/g

Again, but for CC(C)C[C@H](NC(=O)[C@H](Cc1cnc[nH]1)N(C)C(=O)CNC(=O)[C@@H](NC(=O)[C@H](C)NC(=O)[C@H](Cc1c[nH]c2ccccc12)NC(=O)[C@H](CCC(N)=O)NC(=O)[C@@H](Cc1ccccc1)NC(=O)CN1CCC(NC(=O)CN2CCN(CC(=O)O)CCN(CC(=O)O)CCN(CC(=O)O)CC2)CC1)C(C)(C)C)C(=O)N1CSC[C@H]1C(N)=O [^68Ga-LW01110, metal not drawn]
0.59 %ID/g

====

Overview of recorded tissue uptake at 1 h for various compounds
Assay: Ex vivo biodistribution in PC-3 tumor-bearing mice
Conditions: male, NRG, mouse, brain, iv, total radioactivity, Biodistribution Brain Mean, 1 h post-injection, mice bearing PC-3 tumor xenografts, n = 4
Numbered stars: 1 amine (or outer) side, 2 acyl side, 3 side chain; on linkers, the order of the positions; unused ones are H or OH. Square brackets hold non-standard residues; d marks the D form. Peptide text beside a SMILES is read from it. * marks the point of attachment. DOTA = O=C(O)CN1CCN(CC(=O)O)CCN(CC(=O)*)CCN(CC(=O)O)CC1; Leuψ(CH2N)ThzNH2 = CC(C)C[C@@H](CN1CSC[C@H]1C(N)=O)N*; X1 = O=C(CN1CCC(N[*:1])CC1)[*:2]
Entry rule: numbers only, all in %ID/g.

Please review the following examples before continuing.
Compound	Unit Annotation	tissue uptake at 1 h
CC(C)C[C@@H](CN1CCC[C@H]1C(N)=O)NC(=O)[C@H](Cc1c[nH]cn1)NC(=O)CN(C)C(=O)[C@@H](NC(=O)[C@H](C)NC(=O)[C@H](Cc1c[nH]c2ccccc12)NC(=O)[C@H](CCC(N)=O)NC(=O)[C@@H](Cc1ccccc1)NC(=O)CN1CCC(NC(=O)CN2CCN(CC(=O)O)CCN(CC(=O)O)CCN(CC(=O)O)CC2)CC1)C(C)C [^68Ga-LW02045, metal not drawn]	%ID/g	0.02
CC(C)C[C@@H](CN1CSC[C@H]1C(N)=O)NC(=O)[C@H](Cc1cnc[nH]1)NC(=O)CN(C)C(=O)[C@@H](NC(=O)[C@H](C)NC(=O)[C@H](Cc1c[nH]c2ccccc12)NC(=O)[C@H](CCC(N)=O)NC(=O)[C@@H](Cc1ccccc1)NC(=O)CN1CCC(NC(=O)CN2CCN(CC(=O)O)CCN(CC(=O)O)CCN(CC(=O)O)CC2)CC1)C(C)C [^68Ga-LW01090, metal not drawn]	%ID/g	0.03

Could you now consider this next compound?
Fill in the blank: the reported tissue uptake at 1 h of CC(C)C[C@@H](CN1CSC[C@H]1C(N)=O)NC(=O)[C@H](Cc1c[nH]cn1)NC(=O)CNC(=O)[C@@H](NC(=O)[C@H](C)NC(=O)[C@H](Cc1c[nH]c2ccccc12)NC(=O)[C@H](Cc1c[nH]cn1)NC(=O)[C@@H](Cc1ccccc1)NC(=O)CN1CCC(NC(=O)CN2CCN(CC(=O)O)CCN(CC(=O)O)CCN(CC(=O)O)CC2)CC1)C(C)C [^68Ga-LW01102, metal not drawn] ({DOTA}-[X1][dF]HWAVGH-{Leuψ(CH2N)ThzNH2}) is ____.
0.04

====

Experiment: Ex vivo biodistribution in PC-3 tumor-bearing mice
Conditions: male, NOD.Cg-Rag1tm1Mom Il2rgtm1Wjl/SzJ (NRG), mouse, tumor and pancreas, iv, total radioactivity, Tumor/pancreas Mean, uptake ratio, 1 h post-injection, n = 4
Value Type: tissue to tissue ratio at 1 h
Form: value (number only, do not type unit).

What does the data say about its tissue to tissue ratio at 1 h? Entry: CC(C)C[C@@H](CN1CSC[C@H]1C(N)=O)NC(=O)[C@H](Cc1cnc[nH]1)NC(=O)CN(C)C(=O)[C@@H](NC(=O)[C@H](C)NC(=O)[C@H](Cc1c[nH]c2ccccc12)NC(=O)[C@H](CCC(N)=O)NC(=O)[C@@H](Cc1ccccc1)NC(=O)CN1CCC(NC(=O)CN2CCN(CC(=O)O)CCN(CC(=O)O)CCN(CC(=O)O)CC2)CC1)C(C)C [^68Ga-LW01090, metal not drawn]
7.95

====

Assay: Ex vivo biodistribution in PC-3 tumor-bearing mice
Settings: male, NRG, mouse, large intestine, iv, total radioactivity, Biodistribution Large Intestine Mean, 1 h post-injection, mice bearing PC-3 tumor xenografts, n = 4
Numbered stars: 1 amine (or outer) side, 2 acyl side, 3 side chain; on linkers, the order of the positions; unused ones are H or OH. Square brackets hold non-standard residues; d marks the D form. Peptide text beside a SMILES is read from it. * marks the point of attachment. DOTA = O=C(O)CN1CCN(CC(=O)O)CCN(CC(=O)*)CCN(CC(=O)O)CC1; Leuψ(CH2N)ThzNH2 = CC(C)C[C@@H](CN1CSC[C@H]1C(N)=O)N*; X1 = O=C(CN1CCC(N[*:1])CC1)[*:2]
Output Condition met for records whose tissue uptake at 1 h is lower than 0.4 %ID/g, Condition not met for records at or above 0.4 %ID/g.

// known answers, use as guide
Compound	Label
CC(C)C[C@@H](CN1CCC[C@H]1C(N)=O)NC(=O)[C@H](Cc1c[nH]cn1)NC(=O)CN(C)C(=O)[C@@H](NC(=O)[C@H](C)NC(=O)[C@H](Cc1c[nH]c2ccccc12)NC(=O)[C@H](CCC(N)=O)NC(=O)[C@@H](Cc1ccccc1)NC(=O)CN1CCC(NC(=O)CN2CCN(CC(=O)O)CCN(CC(=O)O)CCN(CC(=O)O)CC2)CC1)C(C)C [^68Ga-LW02045, metal not drawn]	Condition met
CC(C)C[C@@H](CN1CSC[C@H]1C(N)=O)NC(=O)[C@H](Cc1c[nH]cn1)NC(=O)CNC(=O)[C@@H](NC(=O)[C@H](C)NC(=O)[C@H](Cc1c[nH]c2ccccc12)NC(=O)[C@H](Cc1c[nH]cn1)NC(=O)[C@@H](Cc1ccccc1)NC(=O)CN1CCC(NC(=O)CN2CCN(CC(=O)O)CCN(CC(=O)O)CCN(CC(=O)O)CC2)CC1)C(C)C [^68Ga-LW01102, metal not drawn] ({DOTA}-[X1][dF]HWAVGH-{Leuψ(CH2N)ThzNH2})	Condition not met
CC(C)C[C@@H](CN1CSC[C@H]1C(N)=O)NC(=O)[C@H](Cc1c[nH]cn1)NC(=O)CNC(=O)[C@@H](NC(=O)[C@H](C)NC(=O)[C@H](Cc1c[nH]c2ccccc12)NC(=O)[C@H](CCC(N)=O)NC(=O)[C@@H](Cc1ccc2ccccc2c1)NC(=O)CN1CCC(NC(=O)CN2CCN(CC(=O)O)CCN(CC(=O)O)CCN(CC(=O)O)CC2)CC1)C(C)C [^68Ga-LW01059, metal not drawn]	Condition not met
CC(C)C[C@@H](CN1CSC[C@H]1C(N)=O)NC(=O)[C@H](Cc1c[nH]cn1)NC(=O)CNC(=O)[C@@H](NC(=O)[C@H](C)NC(=O)[C@H](Cc1c[nH]c2ccccc12)NC(=O)[C@H](CCC(N)=O)NC(=O)[C@@H](Cc1ccccc1)NC(=O)CN1CCC(NC(=O)CN2CCN(CC(=O)O)CCN(CC(=O)O)CCN(CC(=O)O)CC2)CC1)C(C)C [^68Ga-LW01045, metal not drawn]	Condition met

Next:
Please check: tissue uptake at 1 h for CC(C)C[C@H](NC(=O)[C@H](Cc1c[nH]cn1)NC(=O)CNC(=O)[C@@H](NC(=O)[C@H](C)NC(=O)[C@H](Cc1c[nH]c2ccccc12)NC(=O)[C@H](CCC(N)=O)NC(=O)[C@@H](Cc1ccc2ccccc2c1)NC(=O)CN1CCC(NC(=O)CN2CCN(CC(=O)O)CCN(CC(=O)O)CCN(CC(=O)O)CC2)CC1)C(C)C)C(=O)N1CSC[C@H]1C(N)=O [^68Ga-LW01029, metal not drawn] , strictly under 0.4 %ID/g or not?
Condition not met
